# System Under Test: Trypanothione reductase (Trypanosoma cruzi)
# Test Summary: Natural log of the value in (uM) of inhibition constant was tested against Trypanothione Reductase
Threshold rule: Natural log of inhibition constant (Ki in uM) greater than or equal to 4 is yes; below that, no.

Use the examples below as a reference point.
CCN(CC)CCNc1cc(Cl)ccc1Sc1ccccc1: yes
CC(=O)c1ccc(Sc2ccc(Cl)cc2NCCCN2CCN(C)CC2)cc1: no
CN1CCN(CCNc2cc(Cl)ccc2Sc2ccc(Cl)cc2)CC1: no
CN1CCN(CCCNc2cc(Cl)ccc2Sc2ccccc2)CC1: no
Cc1ccc(Sc2ccc(F)cc2)c(NCCCN2CCN(C)CC2)c1: yes
COc1ccc(/C=C/C(=O)N2CCCN(CCCCN)C2)cc1: yes
O=C(/C=C/c1ccc(O)c(O)c1)NCCCNCCCCNCCCNC(=O)/C=C/c1ccc(O)c(O)c1: no
Clc1ccc(Sc2ccccc2NCCN2CCCC2)cc1: yes
CN(C)c1ccc(C(c2ccc(N(C)C)cc2)c2ccc(N(C)C)cc2)cc1: no
CN1CCN(CCCCNc2ccccc2Sc2cccc(NCCCCCNc3cccc(Sc4ccccc4NCCCCN4CCN(C)CC4)c3)c2)CC1: no

Now turn to the next compound.
Could you verify whether the entry Clc1ccc(Sc2ccccc2)c(NCCN2CCCC2)c1 shows Natural log of inhibition constant (Ki in uM) of no less than 4?
yes

---

# System Under Test: UniProt:P28593
# Test Summary: Natural log of the value in (uM) of inhibition constant was tested against Trypanothione Reductase
In this section, each of the compounds is paired with its reported Natural log of inhibition constant (Ki in uM).
Field format: numeric only.

Before answering, review these 5 worked examples.
NCCCNCCCCNCCCNC(=O)CCc1ccc(O)c(O)c1: 4.44
O=C(CCc1ccc(O)c(O)c1)NCCCCNCCCNC(=O)CCc1ccc(O)c(O)c1: 2.01
Clc1ccc(Sc2ccccc2)c(NCCCN2CCCC2)c1: 3.78
CN(C)CCNc1cc(Cl)ccc1Sc1ccccc1: 4.38
Cc1ccc(Sc2ccc(Cl)cc2NCCCN2CCN(C)CC2)cc1: 3.33

Turning now to a further record.
For the compound shown here, Clc1ccc(Sc2ccc(Cl)cc2NCCCN2CCCC2)cc1 , give the reported Natural log of inhibition constant (Ki in uM).
4.06

---

Examples of molecules with documented Natural log of inhibition constant (Ki in uM) follow.
# System Under Test: Trypanothione reductase (Trypanosoma cruzi)
# Test Summary: Natural log of the value in (uM) of inhibition constant was tested against Trypanothione Reductase
Write no unit; give the number alone.

Please review the following examples before continuing.
CN1CCN(CCCNc2cc(Cl)ccc2Sc2ccc(Cl)cc2)CC1: 4.04
CN(C)CCNc1cc(Cl)ccc1Sc1ccc(Cl)cc1: 3.91

// query Natural log of inhibition constant (Ki in uM) value for entry Clc1ccc(Sc2ccccc2)c(NCCN2CCCCC2)c1
6.55

What Natural log of inhibition constant (Ki in uM) value was documented for this molecule, c1ccc(Sc2ccccc2NCCCN2CCCC2)cc1 ?
4.73

Would you kindly share the measured Natural log of inhibition constant (Ki in uM) for COc1ccc(/C=C/C(=O)NCCCCN2CCCN(C(=O)/C=C/c3ccc(OC)cc3)C2)cc1 ?
5.01

Reported Natural log of inhibition constant (Ki in uM) for Clc1ccc(Sc2ccccc2)c(NCCCN2CCCCC2)c1 : what is it?
3.95

GET /values?readout=Natural log of inhibition constant (Ki in uM)&item= Clc1ccc(Sc2ccc(Cl)cc2NCCN2CCCCC2)cc1
6.9

---

# System Under Test: Trypanothione reductase (Trypanosoma cruzi) (UniProt P28593)
# Sequence (P28593 whole entry, looked up): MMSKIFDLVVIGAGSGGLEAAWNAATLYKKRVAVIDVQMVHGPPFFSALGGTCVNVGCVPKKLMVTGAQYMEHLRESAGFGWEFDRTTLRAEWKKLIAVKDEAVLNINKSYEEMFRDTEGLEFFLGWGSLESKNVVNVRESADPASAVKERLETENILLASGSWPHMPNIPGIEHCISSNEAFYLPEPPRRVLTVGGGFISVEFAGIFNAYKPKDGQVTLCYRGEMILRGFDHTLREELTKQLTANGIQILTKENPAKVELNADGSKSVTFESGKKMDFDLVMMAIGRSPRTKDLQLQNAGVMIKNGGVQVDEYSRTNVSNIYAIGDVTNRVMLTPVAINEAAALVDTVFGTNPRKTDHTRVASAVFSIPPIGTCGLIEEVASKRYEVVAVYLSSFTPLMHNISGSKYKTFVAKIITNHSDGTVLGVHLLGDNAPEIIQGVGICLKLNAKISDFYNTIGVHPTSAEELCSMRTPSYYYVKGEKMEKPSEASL
# Test Summary: Natural log of the value in (uM) of inhibition constant was tested against Trypanothione Reductase
Quantity Kind: Natural log of inhibition constant (Ki in uM)
API doc: respond with a numeric literal and nothing else, no unit.

Past entries and their recorded results:
CCN(CC)CCCNc1cc(Cl)ccc1Sc1ccccc1: 3.74
NCCN(CCN)CCCNc1cc(Cl)ccc1Sc1ccccc1: 1.5
Cc1ccc(Sc2ccc(C)cc2NCCCN2CCN(C)CC2)cc1: 4.38
CN1CCN(CCNc2cc(Cl)ccc2Sc2ccccc2)CC1: 3.68
Clc1ccc(Sc2ccc(Cl)cc2NCCCN2CCCCC2)cc1: 4.09

Here is the next item to consider.
Would you mind telling me what Natural log of inhibition constant (Ki in uM) value was observed for COc1ccc(CCC(=O)NCCCNCCCCN)cc1 ?
5.82

---

List of Natural log of inhibition constant (Ki in uM) values.
# System Under Test: UniProt:P28593
# Test Summary: Natural log of the value in (uM) of inhibition constant was tested against Trypanothione Reductase

Consider the following illustrative entries.
CN1CCN(CCCNc2cc(Cl)ccc2Sc2cc(Cl)ccc2Cl)CC1: 3.4
CN(C)CCNc1ccccc1Sc1ccc(Cl)cc1: 4.38
NCCCCNCCCNC(=O)CCc1ccc(O)c(O)c1: 4.68
NCCNCCCNc1cc(Cl)ccc1Sc1ccccc1: 3
CN1CCN(CCNc2ccccc2Sc2ccc(Cl)cc2)CC1: 4.38

Return reported Natural log of inhibition constant (Ki in uM); argument: NCCCNCCCNC1=C(c2c[nH]c3ccccc23)C(=O)NC1=O
0.91

Reference source: ChEMBL document CHEMBL1130101
